Molecular target: human GCG receptor (human, UniProt P47871 26-477)
Sequence (P47871 26-477): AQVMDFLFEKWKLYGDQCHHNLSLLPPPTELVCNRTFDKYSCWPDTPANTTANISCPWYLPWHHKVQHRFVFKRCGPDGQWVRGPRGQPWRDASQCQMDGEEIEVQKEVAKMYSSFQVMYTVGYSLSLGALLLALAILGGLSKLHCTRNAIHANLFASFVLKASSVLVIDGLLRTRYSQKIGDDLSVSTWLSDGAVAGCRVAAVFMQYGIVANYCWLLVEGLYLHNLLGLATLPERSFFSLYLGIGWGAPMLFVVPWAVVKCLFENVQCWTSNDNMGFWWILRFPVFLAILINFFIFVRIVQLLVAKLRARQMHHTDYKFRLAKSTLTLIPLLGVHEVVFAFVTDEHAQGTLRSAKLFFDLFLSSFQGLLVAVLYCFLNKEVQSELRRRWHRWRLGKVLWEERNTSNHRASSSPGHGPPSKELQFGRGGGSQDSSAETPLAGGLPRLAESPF
Experiment: cell-based or functional assay
Bridges are numbered along the chain shown (N, C = ends). Where no end group is shown, it is not given here. [ ]: non-standard residue; d: D form. The star is where a group is joined. Acetyl(2-(4-imidazolyl)) = O=C(Cc1c[nH]cn1)*; Aib = CC(C)(N)C(=O)O
Outcome Measure: In vitro activity compared with native peptide (%) vs. Glucagon
Express the result in % but write the number alone.

Please indicate In vitro activity compared with native peptide (%) vs. Glucagon recorded for {Acetyl(2-(4-imidazolyl))}-[Aib]QGTFTSDYSKYLDEKRQKEFVNWLLAQC (bridge 15-19) [Triple agonist of SEQ ID NO: 86]
0.4

Please indicate In vitro activity compared with native peptide (%) vs. Glucagon recorded for Y[Aib]QGTFTSDYSKALDEKAAKDFVNWLLDHHPSSGQPPPSC (bridge 16-20) [Triple agonist of SEQ ID NO: 99]
14.9

Please indicate In vitro activity compared with native peptide (%) vs. Glucagon recorded for H[Aib]QGTFTSDYSKYLDERACQDFVQWLLDQGGPSSGAPPPS [Triple agonist of SEQ ID NO: 27]
0.8

Please indicate In vitro activity compared with native peptide (%) vs. Glucagon recorded for Y[Aib]QGTFTSDYSKYLDEKRAKEFVQWLLCHHPSSGQPPPS (bridge 16-20) [Triple agonist of SEQ ID NO: 95]
0.4

Please indicate In vitro activity compared with native peptide (%) vs. Glucagon recorded for {Acetyl(2-(4-imidazolyl))}-[Aib]QGTFTSDYSKYLDEKRQKEFVQWLLNTKC (bridge 15-19) [Triple agonist of SEQ ID NO: 88]
0.3

Please indicate In vitro activity compared with native peptide (%) vs. Glucagon recorded for H[Aib]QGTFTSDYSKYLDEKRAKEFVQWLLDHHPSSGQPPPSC (bridge 16-20) [Triple agonist of SEQ ID NO: 50]
50.5

Please indicate In vitro activity compared with native peptide (%) vs. Glucagon recorded for {Acetyl(2-(4-imidazolyl))}-[Aib]EGTFTSDYSIAMDEIHQKDFVDWLLAEKC (bridge 15-19) [Triple agonist of SEQ ID NO: 91]
16.8

Please indicate In vitro activity compared with native peptide (%) vs. Glucagon recorded for Y[Aib]QGTFTSDYSKYLDEKRAKEFVQWLLDHCPSSGQPPPS (bridge 16-20) [Triple agonist of SEQ ID NO: 96]
195

Please indicate In vitro activity compared with native peptide (%) vs. Glucagon recorded for Y[Aib]QGTFTSDYSKALDEKAAKDFVNWLLDQHPSSGQPPPSC (bridge 16-20) [Triple agonist of SEQ ID NO: 102]
29.5

Please indicate In vitro activity compared with native peptide (%) vs. Glucagon recorded for Y[Aib]QGTFTSDYSKYLDECAAKEFVQWLLDHHPSSGQPPPS (bridge 16-20) [Triple agonist of SEQ ID NO: 64]
60.1

Please indicate In vitro activity compared with native peptide (%) vs. Glucagon recorded for H[Aib]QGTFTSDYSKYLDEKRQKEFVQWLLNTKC (bridge 16-20) [Triple agonist of SEQ ID NO: 58]
2.6

Please indicate In vitro activity compared with native peptide (%) vs. Glucagon recorded for Y[Aib]QGTFTSDYSKYLDEKRAKDFVQWLLDHHPSSGQPPPSC (bridge 16-20) [Triple agonist of SEQ ID NO: 76]
47.6
